# system.under.test: T1, cynomolgus Trop-2-His protein (cynomolgus, UniProt P09758 27-274 (human entry))
# T1 construct: also called cynmolgus Trop-His; Kactus Cat #TRP-CM121; not shown: His tag
# T1 chain: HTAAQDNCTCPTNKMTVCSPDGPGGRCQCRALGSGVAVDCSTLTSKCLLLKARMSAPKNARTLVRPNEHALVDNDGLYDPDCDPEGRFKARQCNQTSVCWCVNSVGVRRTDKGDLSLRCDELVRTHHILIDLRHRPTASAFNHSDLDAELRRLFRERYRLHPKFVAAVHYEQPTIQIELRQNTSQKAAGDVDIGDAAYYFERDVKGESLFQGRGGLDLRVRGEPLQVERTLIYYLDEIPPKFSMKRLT
# assay.protocol: BLI (Gator Prime), LEM supernatant Ab on HFC probe
# Procedure: After three times of regeneration and neutralization of HFC probe (Gator, Cat #160003), LEM transfection supernatant samples to be tested in K buffer was diluted 1:1 in K buffer and immobilized onto HFC probe. […] The association and dissociation of human or cynomolgus Trop-2-His antigen from antibody was measured on BLI machine Gator Prime. Affinity was calculated using Gator Bio analysis software. Blank control was used for reference subtraction. […]
attribute.measured: Kd (nM)
Give the quantity in nM, number only.

The examples below pair each entry with its known result.
71F10 (antibody, V domains shown, Rabbit-derived clone; LEM construct: VH + rabbit IgG CH1 + human IgG1 CH2-CH3) VH: QSLEESGGGLVQPGASLTLTCTVSGFDFSSNAMTWVRQAPGEGLEYIGFIGIRGNIYYANWAKGRFTISKTSSTTVTLQMTSLTVADTATYFCARGGLWTGNSYFDLWGPGTLVTVSS VL: YDMTQTPASVSAAVGGTVTINCQASESISRYLAWYQQKPGQPPKPLIYRASTLASGVPSRFKGSGTGTDYTLTISDLECADAATYYCQQGYGYSTVGNAFGGGTEVVVK
0.755
10D3 (antibody, V domains shown, Rabbit-derived clone; LEM construct: VH + rabbit IgG CH1 + human IgG1 CH2-CH3) VH: QSLEESGGDLVQPGASLTLTCKAAGFDLNNYSMLWVRQAPGKGLEWIGCIYISGGTTYYASWAKGRFTISKTSSTTVTLQMTSLTAADTATYFCARDDGSTSYYLNLWGPGTLVTVSS VL: YDMTQTPASVSEPVGGTVTIKCQASEDIYRLLAWYQQKPGQPPKLLIYDASDLASGVPSRFKGSGSGTEYTLTISGLQCADAATYYCQQGYTIGNIDNSFGGGTEVVVK
0.455

Ask: Data request, read-out Kd, for 2H3 (antibody, V domains shown, Rabbit-derived clone; LEM construct: VH + rabbit IgG CH1 + human IgG1 CH2-CH3) VH: QEQLKESGGGLGQPGGSLTLSCKASGFDFNNYGVSWVRQAPGKGLEWIGYIYPAYHNTYYATWVNGRFTISSHNAQNTLYLQLNTLTAADTATYFCARDTGTTDYNFNLWGPGTLVTVSS VL: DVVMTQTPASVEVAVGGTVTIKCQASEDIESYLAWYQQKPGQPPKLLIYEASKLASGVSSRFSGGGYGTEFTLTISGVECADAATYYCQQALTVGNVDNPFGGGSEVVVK
Reply: 0.113

Ask: Consider the binder shown here: 8H2 (antibody, V domains shown, Rabbit-derived clone; LEM construct: VH + rabbit IgG CH1 + human IgG1 CH2-CH3) VH: QSLEESGGDLVQPGASLTLTCKASGFDLNNYAMLWVRQAPGKGLEWIGCIYISGGTTYFASWATGRFAISKTSSTTVTLQMTSLTAADTATYFCARDDGSTSYYLNLWGPGTLVTVSS VL: YDMTQTPASVSAAVGGTVTIKCQASEDIYSLLAWYQQKPGQPPKLLIYDASDLASGVPSRFKGSGSGTEYTLTISALECDDAATYYCQQAYTIGNIDNTFGGGTEVVVK What is its recorded Kd?
Reply: 0.221

Ask: # get_value(readout='Kd', item= 3E9 (antibody, V domains shown, Rabbit-derived clone; LEM construct: VH + rabbit IgG CH1 + human IgG1 CH2-CH3) VH: QEQLKESGGGLVQPGGSLKLSCKASGFDFNNYGVSWVRQAPGKGLEWIAYIYPAFHNRYYANWVNGRFTISSDNAQNTVYLQLNSLTAADTATYFCARDAGSTDYKFNLWGPGTLVTVSS VL: DVVMTQTPASVSAAVGGTVTIKCQASEDIESYLAWYQQKPGQPPKLLIYDASTLASGVSSRFSGSGYGTEFTLTISGVECADAATYYCQQDLTVGNVDNPFGGGSEVVVE )
Reply: 0.538

Origin of the recorded values: patent US20250206841A1
